Format: physicochemical
Conditions: Lauroglycol 90, oil or lipid, thermodynamic from solid, solvent Lauroglycol 90; room temperature, >24 hours; read-out: Solubility
Protocol: The suspensions were filtered through 0.2 or 0.45 microm filters prior to HPLC analysis. Some filtrates were diluted with MeOH prior to the HPLC analysis.
Structures can show the parent of a compound that is named as a salt.
metric: solubility (µg/mL)
Lab book: enter the figure in µg/mL, no units written.

Query: Suppose we examine the compound S=C(NCc1ccc2c(c1)OCO2)N1CCN(c2ncnc3c2oc2ccccc23)CC1 [MP470.HCl, amuvatinib HCl] ; what solubility value has been reported?
Result: 60

---

Assay type: physicochemical
Conditions: dichloromethane, organic solvent or mixture, thermodynamic from solid, solvent Dichloromethane; room temperature, >24 hours; read-out: Solubility
Procedure: The suspensions were filtered through 0.2 or 0.45 microm filters prior to HPLC analysis. Some filtrates were diluted with MeOH prior to the HPLC analysis.
Counter-ions that a name gives are not always drawn.
metric: solubility (µg/mL)
Lab book: enter the figure in µg/mL, no units written.

Query: Suppose we examine the molecule S=C(NCc1ccc2c(c1)OCO2)N1CCN(c2ncnc3c2oc2ccccc23)CC1 [MP470.HCl, amuvatinib HCl] ; what solubility value has been reported?
Result: 400

---

Assay type: physicochemical
Details: Miglyol 812N, oil or lipid, thermodynamic from solid, solvent Miglyol 812N; room temperature, >24 hours; read-out: Solubility
Counter-ions that a name gives are not always drawn.
metric: solubility (µg/mL)
Lab book: enter the figure in µg/mL, no units written.

Query: Suppose we examine the compound S=C(NCc1ccc2c(c1)OCO2)N1CCN(c2ncnc3c2oc2ccccc23)CC1 [MP470.HCl, amuvatinib HCl] ; what solubility value has been reported?
Result: 30

---

Format: physicochemical
Settings: corn oil, oil or lipid, thermodynamic from solid, solvent Corn oil; room temperature, >24 hours; read-out: Solubility
Where a name gives a salt, the structure may show the parent alone.
metric: solubility (µg/mL)
Lab book: enter the figure in µg/mL, no units written.

Query: Suppose we examine the molecule S=C(NCc1ccc2c(c1)OCO2)N1CCN(c2ncnc3c2oc2ccccc23)CC1 [MP470.HCl, amuvatinib HCl] ; what solubility value has been reported?
Result: 10

---

Format: physicochemical
Settings: linoleic acid, oil or lipid, thermodynamic from solid, solvent Linoleic acid; room temperature, >24 hours; read-out: Solubility
metric: solubility (mg/mL)
Lab book: enter the figure in mg/mL, no units written.

Query: Suppose we examine the compound S=C(NCc1ccc2c(c1)OCO2)N1CCN(c2ncnc3c2oc2ccccc23)CC1 ; what solubility value has been reported?
Result: 0.02

---

Format: physicochemical
Details: Miglyol 840, oil or lipid, thermodynamic from solid, solvent Miglyol 840; room temperature, >24 hours; read-out: Solubility
Protocol: The suspensions were filtered through 0.2 or 0.45 microm filters prior to HPLC analysis. Some filtrates were diluted with MeOH prior to the HPLC analysis.
Where a name gives a salt, the structure may show the parent alone.
metric: solubility (mg/mL)
Lab book: enter the figure in mg/mL, no units written.

Query: Suppose we examine the molecule S=C(NCc1ccc2c(c1)OCO2)N1CCN(c2ncnc3c2oc2ccccc23)CC1 [MP470.HCl, amuvatinib HCl] ; what solubility value has been reported?
Result: 0.04

---

Assay type: physicochemical
Conditions: DMF, organic solvent or mixture, thermodynamic from solid, solvent DMF; room temperature, >24 hours; read-out: Solubility
Structures can show the parent of a compound that is named as a salt.
metric: solubility (µg/mL)
Lab book: enter the figure in µg/mL, no units written.

Query: Suppose we examine the molecule S=C(NCc1ccc2c(c1)OCO2)N1CCN(c2ncnc3c2oc2ccccc23)CC1 [MP470.HCl, amuvatinib HCl] ; what solubility value has been reported?
Result: 10000
